target.or.system: T1, Anti-CD28 Fab (SEQ ID NOs: 696, 697)
T1 construct: In the phage ELISA the Fab was biotinylated and captured on neutravidin coated plates
T1 sequence (VH, as listed by the source, chain 1 of 2): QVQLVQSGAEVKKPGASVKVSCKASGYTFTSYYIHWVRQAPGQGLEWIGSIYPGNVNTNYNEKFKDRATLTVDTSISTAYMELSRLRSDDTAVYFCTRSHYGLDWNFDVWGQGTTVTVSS
T1 sequence (VL, as listed by the source, chain 2 of 2): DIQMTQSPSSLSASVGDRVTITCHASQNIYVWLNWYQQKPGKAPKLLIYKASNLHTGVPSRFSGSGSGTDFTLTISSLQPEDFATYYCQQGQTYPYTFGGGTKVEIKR
test.protocol: phage binding ELISA, biotinylated Fab on neutravidin plate, anti-M13 HRP detection;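 further: crude clonal phage supernatants added to Fab-coated wells pretreated with CD28 antigen or with blocking buffer only, bound phage measured after washing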
Where no end group is shown, it is not given here.
Below is a list of entries, each paired with its recorded Anti-CD28 Fab (SEQ ID NOs: 696, 697) signal value.
Reply with just the number.

Solved entries (count: 3):
YCAGHSPINIGKCL (cysteine pairing not given here; also: displayed on phage, fused to pIII, Clonal phage supernatant; not shown: bacteriophage pIII to which the peptide is fused for display) [Phage-463]; 1.49
FMCLPQNPHPLCFK (Clonal phage supernatant; not shown: bacteriophage pIII to which the peptide is fused for display) [Phage-456]; 0.84
YWSCFQIPFTCFYF (Clonal phage supernatant; not shown: bacteriophage pIII to which the peptide is fused for display) [Phage-454]; 1.44

query: Look at this binder and give its reported Anti-CD28 Fab (SEQ ID NOs: 696, 697) signal. YCAGHAWQYINKCL (cysteine pairing not given here; also: displayed on phage, fused to pIII, Clonal phage supernatant; not shown: bacteriophage pIII to which the peptide is fused for display) [Phage-466]
result: 0.64

query: Sample SCAAGASYAWPYCL (Clonal phage supernatant; not shown: bacteriophage pIII to which the peptide is fused for display) [Phage-471] — what was its Anti-CD28 Fab (SEQ ID NOs: 696, 697) signal?
result: 1.49

query: Item WCWDYREWVPMTCP (cysteine pairing not given here; also: displayed on phage, fused to pIII, Clonal phage supernatant; not shown: bacteriophage pIII to which the peptide is fused for display) [Phage-461] has what recorded Anti-CD28 Fab (SEQ ID NOs: 696, 697) signal?
result: 2.3

query: Query (binder): ECHWSMWAVGHACF (cysteine pairing not given here; also: displayed on phage, fused to pIII, Clonal phage supernatant; not shown: bacteriophage pIII to which the peptide is fused for display) [Phage-462] ; field requested: Anti-CD28 Fab (SEQ ID NOs: 696, 697) signal
result: 1.77

query: Anti-CD28 Fab (SEQ ID NOs: 696, 697) signal for PDCQTILFKPWCVR (cysteine pairing not given here; also: displayed on phage, fused to pIII, Clonal phage supernatant; not shown: bacteriophage pIII to which the peptide is fused for display) [Phage-457] ?
result: 2.09

query: Query: Anti-CD28 Fab (SEQ ID NOs: 696, 697) signal; subject: WCWYYREWVPMTCP (cysteine pairing not given here; also: displayed on phage, fused to pIII, Clonal phage supernatant; not shown: bacteriophage pIII to which the peptide is fused for display) [Phage-467]
result: 1.85

query: Dear colleague, I am looking for the recorded Anti-CD28 Fab (SEQ ID NOs: 696, 697) signal of the following binder: WCWDYKLWVPTQCP (cysteine pairing not given here; also: displayed on phage, fused to pIII, Clonal phage supernatant; not shown: bacteriophage pIII to which the peptide is fused for display) [Phage-460]
result: 2.27

query: Fill in: Anti-CD28 Fab (SEQ ID NOs: 696, 697) signal of WICDKSGSIMLCRA (Clonal phage supernatant; not shown: bacteriophage pIII to which the peptide is fused for display) [Phage-470] is ___
result: 0.91

query: Look up Anti-CD28 Fab (SEQ ID NOs: 696, 697) signal: DCWWMFESYPGRCI (cysteine pairing not given here; also: displayed on phage, fused to pIII, Clonal phage supernatant; not shown: bacteriophage pIII to which the peptide is fused for display) [Phage-465]
result: 1.65

query: Fill blank: measured Anti-CD28 Fab (SEQ ID NOs: 696, 697) signal of the binder ACDTYFAGMINECF (cysteine pairing not given here; also: displayed on phage, fused to pIII, Clonal phage supernatant; not shown: bacteriophage pIII to which the peptide is fused for display) [Phage-458] is ____.
result: 0.92

query: Report Anti-CD28 Fab (SEQ ID NOs: 696, 697) signal for YWYCSPSIVRCVLV (cysteine pairing not given here; also: displayed on phage, fused to pIII, Clonal phage supernatant; not shown: bacteriophage pIII to which the peptide is fused for display) [Phage-468] please.
result: 1.51

query: State the recorded Anti-CD28 Fab (SEQ ID NOs: 696, 697) signal for this entry: WECLKYTEANACTY (Clonal phage supernatant; not shown: bacteriophage pIII to which the peptide is fused for display) [Phage-455]
result: 1.55

query: Quick one: Anti-CD28 Fab (SEQ ID NOs: 696, 697) signal of GCQYPWAFDAMSCP (cysteine pairing not given here; also: displayed on phage, fused to pIII, Clonal phage supernatant; not shown: bacteriophage pIII to which the peptide is fused for display) [Phage-459] ?
result: 2.38

query: Quick one: Anti-CD28 Fab (SEQ ID NOs: 696, 697) signal for WCWDYKLWVPMTCP (cysteine pairing not given here; also: displayed on phage, fused to pIII, Clonal phage supernatant; not shown: bacteriophage pIII to which the peptide is fused for display) [Phage-464] ?
result: 2.51

The measurements presented in this section are drawn from patent US20260242478A1.
